The measured values listed here are drawn from the supplement of paper PMC6089552.

# Test system: A673/TR/shEF
# Protocol description: cell viability (LOESS-normalised, relative to median of negative controls) (log2 ratio); higher = more viable cells (less compound effect), active = hit call of the paper (over 3 MAD below the median)
# Reported conditions: 0.25 µM; library screen: screen1; EWS-FLI1 expression: low (doxycycline-induced shRNA knockdown); treatment time: 72 h
In all, about 3,200 compounds went through this assay and about 300 (9.4%) showed activity. Only a selection was taken, and actives are over-represented in it overall.
Decide using cell viability (log2) alone. Strictly below 0.05: t. Equal to or above 0.05: f.

Here's what some known entries look like.
CCC[C@H]1CC2=C(C[C@@H](CC)CC3=C1C(=O)OC3=O)C(=O)OC2=O :: f
Cc1ccc(C(C)C)c(O)c1C(=O)O :: t
COc1ccc2c(c1)OC[C@@H](Cc1ccc(OC)c(OC)c1)[C@@H]2O :: t

Regarding `COc1cc(O)c2c(=O)cc(C)oc2c1CC=C(C)C` , kindly confirm whether its cell viability (log2) is beneath 0.05.
f

Determine whether this compound shows cell viability (log2) lower than 0.05 (ties excluded): `CCOc1ccc(C(=O)c2cc(O)c(OC)c(OC)c2O)cc1`
f

Dear colleague, could you confirm whether cell viability (log2) of `COc1ccc(C[C@@H](N)C(=O)N[C@H]2[C@@H](O)[C@H](n3cnc4c(N(C)C)ncnc43)O[C@@H]2CO)cc1` falls below 0.05? Thanks.
t

---

# System: A673/TR/shEF
# Protocol description: cell viability (LOESS-normalised, relative to median of negative controls) (log2 ratio); higher = more viable cells (less compound effect), active = hit call of the paper (over 3 MAD below the median)
# Reported conditions: 0.308 µM; library screen: screen3; EWS-FLI1 expression: high (no doxycycline); treatment time: 72 h
Among all 3,200 compounds or so, about 300 (9.4%) showed activity. The full list was thinned out, with actives kept by preference.
Could you please mark 1 for values of cell viability (log2) below -0.02 and 0 for values at or above it?

Worked set:
CN1CC[C@H](c2c(O)cc(O)c3c(=O)cc(-c4ccccc4Cl)oc23)[C@H](O)C1 :: 1
Nc1nc(Cl)nc2c1ncn2[C@H]1C[C@H](O)[C@@H](CO)O1 :: 0
CC(=O)O[C@H]1C(=O)[C@@]2(C)[C@H]([C@H](OC(=O)c3ccccc3)[C@]3(O)C[C@H](OC(=O)[C@H](O)[C@@H](NC(=O)c4ccccc4)c4ccccc4)C(C)=C1C3(C)C)[C@]1(OC(C)=O)CO[C@@H]1C[C@@H]2O :: 1

Decide: cell viability (log2) of `C#Cc1cccc(Nc2ncnc3cc(OCCOC)c(OCCO)cc23)c1` strictly below -0.02?
0

Is the reported cell viability (log2) for COc1ccc(-c2nc3ccc(C4=NNC(=O)CC4C)cc3[nH]2)cc1 (centres undefined) strictly below -0.02?
1

---

# Tested on: A673/TR/shEF
# Protocol description: cell viability (LOESS-normalised, relative to median of negative controls) (log2 ratio); higher = more viable cells (less compound effect), active = hit call of the paper (over 3 MAD below the median)
# Reported conditions: 2.5 µM; library screen: screen1; EWS-FLI1 expression: low (doxycycline-induced shRNA knockdown); treatment time: 72 h
Out of some 3,200 compounds screened, about 300 (9.4%) showed activity. The full list was thinned out, with actives kept by preference.
Assign a class; possible classes are t for active, f for inactive

Observe how each entry below is paired with its result.
C=C(C)C1Cc2c(ccc(C(=O)O)c2O)O1 (stereo unspecified) :: f
COc1cc(/C=C/C=O)cc(OC)c1OC :: f
COc1c(Cl)c(C)c2c(c1Cl)OC(=O)c1c(C)c(Cl)c(O)c(Cl)c1O2 :: f
S=c1nc[nH]c2nc[nH]c12 :: f
CO[C@H]1C=C[C@@]23c4cc5c(cc4CN(C[C@@H]2O)[C@H]3C1)OCO5 :: t

What did the test return for `CC(=O)c1c(O)c(C)c(O)c2c1oc1c(C(C)=O)c(O)c(C)c(O)c12` ?
f

Just curious, what result did COC(=O)C(O)[C@H]1C(C)(C)[C@@H](OC(C)=O)[C@@H]2CC3=C4CC(=O)O[C@@H](c5ccoc5)[C@]4(C)CCC3[C@@]1(C)C2=O (stereo partly specified) get here?
f
